Tested on: CCRF-CEM leukemia
Assay: NCI tumour cell line growth inhibition, 48 h
Listed here: items and their measured TGI.

Nc1ccc(C23CC4CC(C2)CC(c2ccc(N)cc2)(C4)C3)cc1 : 29.7 µM
O=C1c2ccccc2C(=O)C1C(c1ccc(F)cc1)C1C(=O)c2ccccc2C1=O : > 100 µM
Cc1ccc(C(=O)/C=C/c2cccc([N+](=O)[O-])c2)cc1 : > 89.9 µM
COc1nc2c(c(=O)n1C)N=C(c1ccccc1)[C@H](C(CC(=O)c1ccccc1)c1ccccc1)C(c1ccccc1)N2 (stereo not given in full) : > 100 µM

Attention now shifts to the item below.
Given the entry O=c1cc(-c2ccco2)[nH]c2cc3c(cc12)OCO3 , report its measured TGI.
> 100 µM
